- Tested on: wheat germ agglutinin (Triticum aestivum), Alexa647-labelled
- ASSAY EXPLANATION: Alexa647-WGA lectin binding to printed small molecules – biochemical, small-molecule microarray, 635/667 nm fluorescence, artefact control for SMM control-protein annotation, profiling panel (AID 1140);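 also: score merges 667 nm feature emission with signal to noise over triplicate slides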
- CONDITIONS USED: WGA-A647 binding, 635 nm fluorescence, higher = more signal
Decision: composite z-score >= 0.5 yields criterion met, all other cases yield criterion not met.

// inclusive: composite z-score at least 0.5? input: O=C1NC(=O)C2C1C=CC(C(O)c1ccc([N+](=O)[O-])cc1)N2Nc1ccccn1 (stereo unspecified)
criterion not met

Textbook exercise: given the entry CN1C(=O)C2C(C1=O)C1C=C(CCCO)C2C(C2CC2)N1Cc1cccc(OC(F)(F)F)c1 (stereo unspecified) , state whether its composite z-score is greater than or equal to 0.5.
criterion met

hey, is composite z-score for this one >= 0.5? COC(=O)c1cccc([C@H]2OC(=CC(=O)OC(C)C)C[C@@H](c3cccc(C(=O)OC)c3)O2)c1
criterion met

Could you verify whether the entry O=C(NCc1ccccc1)[C@@H]1c2ccccc2C(=O)N(Cc2cc(C(F)(F)F)cc(C(F)(F)F)c2)[C@H]1c1ccc(CO)cc1 shows composite z-score of no less than 0.5?
criterion not met

In plain terms: is recorded composite z-score at least 0.5 for COc1ccc([Si](C)(C)[C@@H]2[C@@H](CC(=O)N3Cc4ccccc4C[C@H]3CO)O[C@]3(C(=O)N(Cc4ccc(N5CCOC5=O)cc4)c4ccccc43)[C@H]2C)cc1 ?
criterion met

composite z-score >= 0.5 for COC(=O)[C@@]1(Cc2ccccc2)[C@H]2c3cc(C(=O)N(C)C)n(Cc4ccc(C(F)(F)F)nc4)c3C[C@H]2CN1C(=O)c1ccccc1 ?
criterion met

Textbook exercise: given the entry C=CCC(OC(C)=O)[C@@H]1[C@@H](N(Cc2cccc3ccccc23)C(=O)c2ccc(-c3ccccc3)cc2)c2cc(OCCCO)ccc2N1C(=O)Cc1ccc2ccccc2c1 (stereo partly specified) , state whether its composite z-score is greater than or equal to 0.5.
criterion not met

Could you please find out whether O=C(N1CCOCC1)[C@@]1(Cc2ccccc2)COC(c2ccc(OCCCO)cc2)=N1 has composite z-score that meets 0.5 or exceeds it?
criterion met

I'd appreciate it if you could say whether CC1CC/C=C\[C@H]2OC34C=CCN(CCN5CCOCC5)C(=O)[C@H]3N(CCCO)C(=O)[C@@H]4C2C(=O)O1 (stereo partly specified) has composite z-score at least equal to 0.5.
criterion not met

Kindly determine if composite z-score recorded for CCCC#C[Si](O[C@H](CC)c1cn(Cc2ccccc2)nn1)(C(C)C)C(C)C is above or exactly 0.5.
criterion not met

Hi, just wondering whether CCOC(=O)C[C@H]1[C@H](OC(=O)c2ccccc2-c2ccccc2)[C@@H](NC(=O)C2CCCCC2)c2cc(OCCCO)ccc2N1C(=O)c1ccc2ccccc2n1 shows composite z-score of 0.5 or higher.
criterion not met

Is composite z-score at least 0.5? Consider C=C(COC)C(=O)CC[C@@H](OC(C)=O)c1ccccc1OCCO
criterion met

hey, is composite z-score for this one >= 0.5? O=C(NC1CC1)[C@@H]1c2ccccc2C(=O)N(CC23CC4CC(CC(C4)C2)C3)[C@H]1c1ccc(CO)cc1
criterion not met

Reported composite z-score reaches at least 0.5 for CC[C@@H]1C=C(C(=O)O)[C@H](c2ccc(OC)cc2)N1S(=O)(=O)c1ccc(C)cc1 ?
criterion not met

Threshold query (composite z-score >= 0.5) on CC(C)(C)OC(=O)CC[C@]1(C(=O)NCC(O)CO)N=C(c2ccc(OCCCO)cc2)O[C@H]1c1ccccc1N=[N+]=[N-] (stereo partly specified)
criterion met

Is it the case that C=C(CCCC)C(=O)CC[C@H](OC(=O)c1ccccc1-c1ccccc1C(=O)O)c1ccc(OCCO)cc1 has composite z-score reaching or exceeding 0.5?
criterion met

* * *

Give measured z-score for each item. Keep answers brief.
- ASSAY EXPLANATION: JC-1 mitochondrial signal, unstimulated myeloma cells – cell-based, JC-1 fluorescence, RPMI8226, 24 h, 100 nL compound, profiling panel (AID 1169); also: test concentration not given here
- CONDITIONS USED: JC-1 mitochondrial potential fluorescence, higher = more signal
// no unit string in output, number only

# compound COC(=O)C(CC#Cc1ccc2c(c1)[C@]1(C(=O)N2)[C@H](c2ccc(OCCO)cc2)N2[C@H](c3ccccc3)[C@H](c3ccccc3)OC(=O)[C@H]2[C@@H]1C(=O)N1CCCCCCC1)C(=O)OC ; its z-score = -1.08

Entry CCOC(=O)C1=CC[C@@H](c2ccc(OC)cc2)N(S(=O)(=O)c2ccc(C)cc2)[C@H]1CC ; z-score = -0.301

Record CC(C)=CCCC=C(C)C(O)C1C=CC2C(=O)N(c3ccccc3)C(=O)C2N1Nc1ccc(C#N)cc1 (configuration not stated) , field z-score: -0.483

get_value(item= COCCOC(=O)N1C(=O)[C@@]2(c3ccccc31)[C@H](c1ccc(O)cc1)N1[C@H](c3ccccc3)[C@H](c3ccccc3)OC(=O)[C@H]1[C@@H]2C(=O)N1CCCCCCC1 , readout=z-score) returns 0.167

// z-score value for CCCC=C(CCC)[C@@H](NC(=O)OCC(C)C)c1ccc(C(=O)OC)cc1 : -0.0219

z-score for CCCCCC1=C2CNC(CC(C)C)(C(=O)OC)C=C2C(C)C1=O (configuration not stated) is -0.324

Just so you know, measured z-score for NC(=O)N1C(=O)C2C(C1=O)C1C=C(CCCO)C2C(C2CC2)N1Cc1sc2ccccc2c1Cl (configuration not stated) came out at -0.0842

* * *

- ASSAY EXPLANATION: blood-stage malaria parasite viability loss – strain 3D7, DAPI fluorescence, 100 nL, primary screen (AID 1184);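 also: parasites grown inside human red blood cells in medium with human serum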
- CONDITIONS USED: P. falciparum 3D7 growth, 3 d, higher = more signal
Tag: Y if measured z-score is not below -1, N if it is.

Reported z-score at or above -1? COC(=O)[C@@]1(Cc2ccc(F)cc2)[C@H]2c3cc(C(=O)N4CCCC4)n(Cc4cc(F)cc5c4OCOC5)c3C[C@H]2CN1C(=O)c1ccccc1
N

Is it the case that C=CCNC(=O)[C@H]1[C@@H]2C(=O)O[C@@H](c3ccccc3)[C@@H](c3ccccc3)N2[C@@H](c2ccccc2OCCO)[C@]12C(=O)N(C(=O)OCCOC)c1ccc(C#Cc3ccc(OC)cc3)cc12 has z-score reaching or exceeding -1?
N

I'd appreciate it if you could say whether CC(C)NC(=O)[C@@]1(c2ccc([N+](=O)[O-])cc2)CC(=O)N(CC23CC4CC(CC(C4)C2)C3)[C@@H]1c1ccc(CO)cc1 has z-score at least equal to -1.
Y

Reported z-score reaches at least -1 for C=CCNC(=O)[C@@H]1[C@H]2C(=O)O[C@H](c3ccccc3)[C@H](c3ccccc3)N2[C@H](c2ccc(OCCO)cc2)[C@@]12C(=O)Nc1ccc(C#CC3(O)CCCCCC3)cc12 ?
N

Does O=C(NC1CC1)[C@@H]1c2ccccc2C(=O)N(Cc2cc(C(F)(F)F)cc(C(F)(F)F)c2)[C@H]1c1ccc(CO)cc1 have a reported z-score of at least -1?
N

z-score >= -1 for O=C1C[C@@](C(=O)NCc2ccccc2)(c2ccc([N+](=O)[O-])cc2)[C@@H](c2ccc(CO)cc2)N1C1CCCCC1 ?
Y

Is the recorded value of z-score equal to or greater than -1 for this compound? Cc1ccc(C(C)CC(O)C2C=CC3C(=O)N(C)C(=O)C3N2Nc2ccccc2)o1 (stereo not drawn)
Y

Please tell me: is the compound CCOC(=O)C[C@H]1[C@H](OC(=O)c2ccccc2-c2ccccc2)[C@@H](NC(=O)C2CCCCC2)c2cc(OCCCO)ccc2N1C(=O)c1ccc2ccccc2n1 at or over -1 in terms of z-score?
Y

// inclusive: z-score at least -1? input: CN(C)CCCC[C@@H]1NC(=O)[C@@H]2C[C@H](C(=O)NCCCCCCNC(=O)CS)[C@H](c3ccc(O)cc3)N2C1=O
Y

# bool: z-score of NC(=O)N1C(=O)C2C(C1=O)C1C=C(CCCO)C2C(C2CC2)N1Cc1sc2ccccc2c1Cl (stereo not drawn) >= -1
Y

Could you please find out whether C=CCOC(=O)[C@H]1[C@@H]2C(=O)O[C@@H](c3ccccc3)[C@@H](c3ccccc3)N2[C@@H](c2ccc(OCCOC(=O)[C@@H]3C[C@@H]4C(=O)N[C@@H](CCCC[N+](C)(C)C)C(=O)N4[C@@H]3c3ccc(O)cc3)cc2)[C@]12C(=O)Nc1ccc(I)cc12 has z-score that meets -1 or exceeds it?
Y

Test whether the compound C=CCOC(=O)[C@H]1[C@@H]2C(=O)O[C@@H](c3ccccc3)[C@@H](c3ccccc3)N2[C@@H](c2ccc(OCCOC(=O)[C@H]3C[C@H]4C(=O)N[C@@H](CC(C)C)C(=O)N4[C@H]3c3ccc(O)cc3)cc2)[C@]12C(=O)Nc1ccccc12 records z-score of -1 or higher.
N

Please check the record CC(C)NC(=O)[C@@H]1c2ccccc2C(=O)N(Cc2ccc(OC(F)(F)F)cc2)[C@H]1c1ccc(CO)cc1 and state if its z-score is at or above -1.
N
